// values below are reported pIC50
# SYSTEM NAME: T1, full-length beta-Catenin (Uniprot ID P35222) (Homo sapiens (Human), UniProt P35222 2-781)
# T1 construct: No tag is stated for the FP assay; also called bCat; B-Catenin
# T1 sequence: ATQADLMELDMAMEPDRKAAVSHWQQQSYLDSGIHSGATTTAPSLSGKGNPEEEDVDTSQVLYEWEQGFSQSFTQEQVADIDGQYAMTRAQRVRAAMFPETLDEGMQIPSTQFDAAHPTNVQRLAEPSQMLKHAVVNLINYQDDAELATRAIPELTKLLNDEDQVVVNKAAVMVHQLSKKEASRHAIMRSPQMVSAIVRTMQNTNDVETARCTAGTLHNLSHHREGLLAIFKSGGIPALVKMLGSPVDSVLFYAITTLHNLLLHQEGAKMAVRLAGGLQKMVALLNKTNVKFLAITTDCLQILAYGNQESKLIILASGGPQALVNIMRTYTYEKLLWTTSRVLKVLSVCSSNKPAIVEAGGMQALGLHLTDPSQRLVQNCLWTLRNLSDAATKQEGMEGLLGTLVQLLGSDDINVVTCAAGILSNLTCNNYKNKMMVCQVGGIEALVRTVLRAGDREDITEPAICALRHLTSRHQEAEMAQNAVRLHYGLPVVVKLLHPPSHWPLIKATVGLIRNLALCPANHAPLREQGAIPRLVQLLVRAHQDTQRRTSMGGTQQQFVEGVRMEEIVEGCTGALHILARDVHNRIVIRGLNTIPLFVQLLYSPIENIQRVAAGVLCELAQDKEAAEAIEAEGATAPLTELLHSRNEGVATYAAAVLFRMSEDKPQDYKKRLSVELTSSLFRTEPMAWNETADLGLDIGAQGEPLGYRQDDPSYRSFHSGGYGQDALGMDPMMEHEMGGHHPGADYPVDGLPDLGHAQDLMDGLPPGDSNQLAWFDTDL
# ASSAY PROTOCOL: fluorescence polarization competition; full-length beta-catenin with 5FAM-TCF4(10-53) probe as competitor
Starred links: 1 amine or outer side, 2 acyl side, 3 side chain; linkers in the order of their positions; H or OH if unused. Positions of bridges follow the written chain, without caps; N, C: chain ends. Non-standard residues stand in square brackets, D forms with d. Primed or numbered codes have the meaning given here. B5(29) = 2-amino-2-(pent-4-en-1-yl)hept-6-enoic acid (2,2-bis(4-pentenyl)glycine), stitching residue bearing both staples, C=CCCCC(CCCC=C)(N[*:1])C(=O)[*:2]; B5(17) = 2,2-bis(4-pentenyl)glycine = 2-amino-2-(pent-4-en-1-yl)hept-6-enoic acid, stitching residue, C=CCCCC(CCCC=C)(N[*:1])C(=O)[*:2]; B5(6) = 2-amino-2-(pent-4-en-1-yl)hept-6-enoic acid (bis(4-pentenyl)glycine), stitching residue, C=CCCCC(CCCC=C)(N[*:1])C(=O)[*:2]; Bta = N[C@@H](Cc1csc2ccccc12)C(=O)O; αAllylPro = C=CC[C@@]1(C(=O)O)CCCN1; S8 = C=CCCCCCC[C@](C)(N)C(=O)O; hSer = N[C@@H](CCO)C(=O)O
# reply with the number alone; pIC50 is -log10 of concentration in mol/L

Example binders with recorded pIC50:
BINDER | pIC50
XDIXDEAAFNXFXQ (not fully specified; Ac-PL3-Asp-aIle-B5-Asp-Glu-Ala-Ala-Phe-Asn-S8-Phe-BztA-Gln-NH2; N-terminal acetyl, C-terminal amide; PL3(1)-B5(4) and B5(4)-S8(11) stapled by olefin metathesis; aIle at 3; BztA at 13, Stapled peptide; this is the later eluting HPLC peak (staple isomer composition)) [I-476] | 7.32
Ac-[αAllylPro]DA[B5(6)][hSer]EAAFQ[S8]F[Bta]Q-NH2 (staple 1-4, 4-11; not fully specified; printed as Ac-PL3-Asp-Ala-B5-Hse-Glu-Ala-Ala-Phe-Gln-S8-Phe-BztA-Gln-NH2, Stapled peptide; this is the second eluting HPLC peak (staple isomer composition)) [I-497] | 5.30
XDAXDEAAFQXFXQ (not fully specified; Ac-PL3-Asp-Ala-B5-Asp-Glu-Ala-Ala-Phe-Gln-S8-Phe-BztA-DGIn-NH2 (so in the source); D-Gln at 14); N-terminal acetyl, C-terminal amide; PL3(1)-B5(4) and B5(4)-S8(11) stapled by olefin metathesis; BztA at 13, Stapled (stitched) peptide composition) [I-494] | 7.09
Ac-[αAllylPro]DI[B5(29)]DEAAFN[S8]F[Bta]H-NH2 (staple 1-4, 4-11, Stapled (stitched) peptide composition) [I-472] | 7.21
XDAXDEAAFQXFXS (not fully specified; Ac-PL3-Asp-Ala-B5-Asp-Glu-Ala-Ala-Phe-Gln-S8-Phe-BztA-DSer-NH2; N-terminal acetyl, C-terminal amide; PL3(1)-B5(4) and B5(4)-S8(11) stapled by olefin metathesis; BztA at 13; D-Ser at 14, Stapled (stitched) peptide composition) [I-493] | 7.06
XDAXDEAAFNXFXH (not fully specified; Ac-PL3-Asp-Ala-B5-Asp-Glu-Ala-Ala-Phe-Asn-S8-Phe-BztA-1MeH-NH2; N-terminal acetyl, C-terminal amide; PL3(1)-B5(4) and B5(4)-S8(11) stapled by olefin metathesis; BztA at 13; 1MeH at 14, Stapled peptide; this is the earlier eluting HPLC peak (staple isomer composition)) [I-478] | 7.15

Lookup: Give the measured pIC50 of Ac-[αAllylPro]DI[B5(6)]DEAAFQ[S8]F[Bta]H-NH2 (staple 1-4, 4-11, Stapled (stitched) peptide composition) [I-471] .
Found: 7.28

Lookup: Proceed to XDAXDEAAFNXFXH (not fully specified; Ac-PL3-Asp-Ala-B5-Asp-Glu-Ala-Ala-Phe-Asn-S8-Phe-BztA-1MeH-NH2; N-terminal acetyl, C-terminal amide; PL3(1)-B5(4) and B5(4)-S8(11) stapled by olefin metathesis; BztA at 13; 1MeH at 14, Stapled peptide; this is the later eluting HPLC peak (staple isomer composition)) [I-479]
Found: 7.57

Lookup: Now the same for XDIXDEAAFNXFXQ (not fully specified; Ac-PL3-Asp-aIle-B5-Asp-Glu-Ala-Ala-Phe-Asn-S8-Phe-BztA-Gln-NH2; N-terminal acetyl, C-terminal amide; PL3(1)-B5(4) and B5(4)-S8(11) stapled by olefin metathesis; aIle at 3; BztA at 13, Stapled peptide; this is the earlier eluting HPLC peak (staple isomer composition)) [I-475]
Found: 6.99

Lookup: Request: Ac-[αAllylPro]DA[B5(17)]DEAAFQ[S8]F[Bta][hSer]-NH2 (staple 1-4, 4-11; also: later eluting HPLC peak, E/Z not assigned, Stapled peptide; this is the later eluting HPLC peak (staple isomer composition)) [I-492]
Found: 7.28

Lookup: Also Ac-[αAllylPro]DA[B5(17)]DEAAFQ[S8]F[Bta][hSer]-NH2 (staple 1-4, 4-11; also: earlier eluting HPLC peak, E/Z not assigned, Stapled peptide; this is the earlier eluting HPLC peak (staple isomer composition)) [I-491] , if possible.
Found: 6.82
